protocol description: In vitro stability in liver microsomes, human
Format: in vitro ADME
particulars: 0.5 mg/mL

| structure string | CLint scaled at 1 μM, mL/min/kg |
| --- | --- |
| C=C(F)C(=O)N1CCN(c2nc(OC[C@@]34CCCN3C[C@H](F)C4)nc3c2CO[C@H](c2c(F)c(N)cc(C)c2C(F)(F)F)C3)C[C@@H]1CC#N | 61.1 |

----------
protocol description: In vitro stability in liver microsomes, cynomolgus monkeys
Assay type: in vitro ADME
particulars: cynomolgus monkey, 0.5 mg/mL, read-out: CLint(hep)
Experimental: Metabolic stabilities of the assay compound in liver microsomes of CD-1 mice, SD rats, beagle dogs, cynomolgus monkeys, and human were assayed, respectively. […] After the pre-incubation, 5 μL of working solutions of the assay sample or the control compound were added to the T60 incubation plate and the NCF60 incubation plate, respectively, and the mixture was mixed well. […] All samples were injected and analyzed by liquid chromatography-tandem mass spectrometry.

| molecule | microsomal CLint at 1 μM |
| --- | --- |
| C=C(F)C(=O)N1CCN(c2nc(OC[C@@]34CCCN3C[C@H](F)C4)nc3c2CO[C@H](c2c(F)c(N)cc(C)c2C(F)(F)F)C3)C[C@@H]1CC#N [Compound of formula (I)] | 225 µL/min/mg |

The measured values listed here are drawn from patent US20250129102A1.
